// provenance: PubChem BioAssay (NCI)

- System: OVCAR-3 ovarian
- assayExplanation: NCI tumour cell line growth inhibition, 48 h

[
  {
    "compound": "COc1ccc2nc(C)cc(Sc3nc4ccccc4s3)c2c1",
    "GI50": "1.47 µM"
  },
  {
    "compound": "CC1CCCC(C#N)(NOC2=NCCN2)C1 (stereo not drawn)",
    "GI50": "43 µM"
  },
  {
    "compound": "Nc1nc(Cl)nc2c1ncn2C1OC(CO)C(O)C1F (stereo not drawn)",
    "GI50": "> 100 µM"
  },
  {
    "compound": "CC12CCC(=O)C(O1)C1C(=O)c3ccc4c(ccc5ccccc54)c3C(=O)C12 (stereo not drawn)",
    "GI50": "1.2 µM"
  },
  {
    "compound": "O=C(O)COc1ccc(OCC(=O)O)cc1",
    "GI50": "2.5 µM"
  },
  {
    "compound": "CN(C)CCN1C(=O)c2cccc3c(/C=C/CN4C(=O)c5cccc6cccc(c56)C4=O)ccc(c23)C1=O",
    "GI50": "> 100 µM"
  },
  {
    "compound": "N#C/C(=C/N1CCN(C(=O)c2ccco2)C1=S)C(=O)Nc1ccc(Cl)cc1",
    "GI50": "15.5 µM"
  },
  {
    "compound": "COC1=C(OC)C(=O)C(C/C=C(\\C)CC/C=C(\\C)CC/C=C(\\C)CC/C=C(\\C)CC/C=C(\\C)CC/C=C(\\C)CC/C=C(\\C)CC/C=C(\\C)CC/C=C(\\C)CCC=C(C)C)=C(C)C1=O",
    "GI50": "> 100 µM"
  }
]

###

Items are presented alongside their recorded TGI.
- Tested on: NCI-H226 lung
- assayExplanation: NCI tumour cell line growth inhibition, 48 h
metricName: TGI (µM)

[
  {
    "compound": "CCOC(=O)[C@@]12C(C)=CC(=O)O[C@]1(C)C1C(=O)NC(=O)C12 (stereo not given in full)",
    "metricName": "TGI",
    "valueModifier": ">",
    "obsValue": 100
  },
  {
    "compound": "CC(=O)c1c[nH]c2ccc(-c3ccnc(Nc4ccc(NC(=O)C5CCCC5)c(CN5CCOCC5)c4)n3)cc12",
    "metricName": "TGI",
    "valueModifier": "=",
    "obsValue": 0.284
  },
  {
    "compound": "COc1cccc(NC(=O)CC(=O)n2nc(-c3ccccc3)c(N=Nc3ccc(Cl)cc3)c2-c2ccccc2)c1",
    "metricName": "TGI",
    "valueModifier": "=",
    "obsValue": 73.8
  },
  {
    "compound": "Cc1cc(=O)[nH]c(N/N=C/c2ccccc2O)n1",
    "metricName": "TGI",
    "valueModifier": ">",
    "obsValue": 100
  },
  {
    "compound": "O=C1C(Cl)=C(Cl)C(=O)N1c1ccc(Cl)c(Cl)c1Cl",
    "metricName": "TGI",
    "valueModifier": ">",
    "obsValue": 100
  },
  {
    "compound": "COc1cc2c(cc1OC)C(C(CBr)CBr)N(C1CCCC1)CC2 (stereo not given)",
    "metricName": "TGI",
    "valueModifier": ">",
    "obsValue": 100
  },
  {
    "compound": "CCCCCCCCCCCNC=O",
    "metricName": "TGI",
    "valueModifier": ">",
    "obsValue": 100
  },
  {
    "compound": "Nc1ccc2c(=O)cc(-c3ccc(Br)s3)[nH]c2n1",
    "metricName": "TGI",
    "valueModifier": "=",
    "obsValue": 9.11
  },
  {
    "compound": "CC(=O)OCC1OC(SC2=NC(=O)CS2)C(OC(C)=O)C(OC(C)=O)C1OC(C)=O (stereo not given)",
    "metricName": "TGI",
    "valueModifier": ">",
    "obsValue": 100
  },
  {
    "compound": "O=C1C=CC(=O)c2c(O)c(N3CCOCC3)c(Cl)c(O)c21",
    "metricName": "TGI",
    "valueModifier": "=",
    "obsValue": 3.34
  }
]
